Assayed system: T1, recombinant human IL-6 (human, UniProt P05231 30-212)
T1 construct: Flowed in solution over the captured antibodies
T1 sequence (P05231 30-212 limits assumed): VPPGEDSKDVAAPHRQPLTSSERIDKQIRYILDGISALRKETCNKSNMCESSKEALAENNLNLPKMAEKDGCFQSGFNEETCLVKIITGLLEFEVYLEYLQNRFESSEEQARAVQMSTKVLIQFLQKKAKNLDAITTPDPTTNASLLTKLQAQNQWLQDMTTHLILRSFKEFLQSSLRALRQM
Method: SPR (Biacore), supernatant IgG on Protein A, 25 C
Assay readout: pKd
pKd here: minus log base 10 of the concentration, concentration in moles per litre.

Consider the worked cases shown below.
anti-IL-6 antibody, heavy chain T58K, light chain WT (antibody, IgG1, V domains shown, Full IgG1 tested; V domains derived as in m2) VH: EVQLVESGGGLVQPGGSLRLSCAASGFTFSPFAMSWVRQAPGKGLEWVAKISPGGSWKYYSDTVTGRFTFSLDTSKSTAYLQMNSLRAEDTAVYYCARQLWGYYALDIWGQGTLVTVSS VL: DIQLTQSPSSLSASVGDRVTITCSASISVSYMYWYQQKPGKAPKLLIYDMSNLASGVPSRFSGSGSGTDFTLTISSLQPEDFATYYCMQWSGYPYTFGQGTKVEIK | 9.41
anti-IL-6 antibody, heavy chain T28K, light chain WT (antibody, IgG1, V domains shown, Full IgG1 tested; V domains derived as in m2) VH: EVQLVESGGGLVQPGGSLRLSCAASGFKFSPFAMSWVRQAPGKGLEWVAKISPGGSWTYYSDTVTGRFTFSLDTSKSTAYLQMNSLRAEDTAVYYCARQLWGYYALDIWGQGTLVTVSS VL: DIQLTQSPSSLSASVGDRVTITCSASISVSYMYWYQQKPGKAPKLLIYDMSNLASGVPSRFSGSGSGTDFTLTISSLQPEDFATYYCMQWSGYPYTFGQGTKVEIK | 9.43
anti-IL-6 antibody, heavy chain WT, light chain S24I (antibody, IgG1, V domains shown, Full IgG1 tested; V domains derived as in m2) VH: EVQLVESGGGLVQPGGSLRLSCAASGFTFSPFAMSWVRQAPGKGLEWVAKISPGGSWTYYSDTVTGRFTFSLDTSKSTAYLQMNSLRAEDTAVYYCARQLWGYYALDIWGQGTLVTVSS VL: DIQLTQSPSSLSASVGDRVTITCIASISVSYMYWYQQKPGKAPKLLIYDMSNLASGVPSRFSGSGSGTDFTLTISSLQPEDFATYYCMQWSGYPYTFGQGTKVEIK | 9.55
anti-IL-6 antibody, heavy chain Y103E, light chain WT (antibody, IgG1, V domains shown, Full IgG1 tested; V domains derived as in m2) VH: EVQLVESGGGLVQPGGSLRLSCAASGFTFSPFAMSWVRQAPGKGLEWVAKISPGGSWTYYSDTVTGRFTFSLDTSKSTAYLQMNSLRAEDTAVYYCARQLWGEYALDIWGQGTLVTVSS VL: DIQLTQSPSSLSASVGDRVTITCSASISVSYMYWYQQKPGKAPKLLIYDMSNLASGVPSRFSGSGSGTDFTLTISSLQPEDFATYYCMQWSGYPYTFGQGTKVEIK | 9.64
anti-IL-6 antibody, heavy chain F27S, light chain WT (antibody, IgG1, V domains shown, Full IgG1 tested; V domains derived as in m2) VH: EVQLVESGGGLVQPGGSLRLSCAASGSTFSPFAMSWVRQAPGKGLEWVAKISPGGSWTYYSDTVTGRFTFSLDTSKSTAYLQMNSLRAEDTAVYYCARQLWGYYALDIWGQGTLVTVSS VL: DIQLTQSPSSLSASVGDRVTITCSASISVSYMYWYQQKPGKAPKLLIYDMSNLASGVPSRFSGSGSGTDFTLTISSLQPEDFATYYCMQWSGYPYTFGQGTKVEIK | 9.56
anti-IL-6 antibody, heavy chain A105Q, light chain WT (antibody, IgG1, V domains shown, Full IgG1 tested; V domains derived as in m2) VH: EVQLVESGGGLVQPGGSLRLSCAASGFTFSPFAMSWVRQAPGKGLEWVAKISPGGSWTYYSDTVTGRFTFSLDTSKSTAYLQMNSLRAEDTAVYYCARQLWGYYQLDIWGQGTLVTVSS VL: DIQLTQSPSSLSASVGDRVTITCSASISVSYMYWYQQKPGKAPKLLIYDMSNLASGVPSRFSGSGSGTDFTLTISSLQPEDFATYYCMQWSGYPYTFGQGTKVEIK | 8.98
anti-IL-6 antibody, heavy chain Y103D, light chain WT (antibody, IgG1, V domains shown, Full IgG1 tested; V domains derived as in m2) VH: EVQLVESGGGLVQPGGSLRLSCAASGFTFSPFAMSWVRQAPGKGLEWVAKISPGGSWTYYSDTVTGRFTFSLDTSKSTAYLQMNSLRAEDTAVYYCARQLWGDYALDIWGQGTLVTVSS VL: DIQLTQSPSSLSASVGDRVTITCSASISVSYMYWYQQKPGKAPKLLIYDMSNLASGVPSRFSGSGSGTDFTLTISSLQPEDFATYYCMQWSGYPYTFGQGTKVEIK | 9.53
anti-IL-6 antibody, heavy chain T63D, light chain WT (antibody, IgG1, V domains shown, Full IgG1 tested; V domains derived as in m2) VH: EVQLVESGGGLVQPGGSLRLSCAASGFTFSPFAMSWVRQAPGKGLEWVAKISPGGSWTYYSDDVTGRFTFSLDTSKSTAYLQMNSLRAEDTAVYYCARQLWGYYALDIWGQGTLVTVSS VL: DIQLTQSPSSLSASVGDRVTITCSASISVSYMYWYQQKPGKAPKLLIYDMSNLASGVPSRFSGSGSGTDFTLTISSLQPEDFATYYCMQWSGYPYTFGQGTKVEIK | 9.37

-- ask Record request: pKd value, item anti-IL-6 antibody, heavy chain D107E, light chain WT (antibody, IgG1, V domains shown, Full IgG1 tested; V domains derived as in m2) VH: EVQLVESGGGLVQPGGSLRLSCAASGFTFSPFAMSWVRQAPGKGLEWVAKISPGGSWTYYSDTVTGRFTFSLDTSKSTAYLQMNSLRAEDTAVYYCARQLWGYYALEIWGQGTLVTVSS VL: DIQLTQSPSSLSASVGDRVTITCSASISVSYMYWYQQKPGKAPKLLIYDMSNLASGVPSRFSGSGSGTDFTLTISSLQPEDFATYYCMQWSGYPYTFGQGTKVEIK
-- reply 9.54

-- ask Which measured pKd value corresponds to anti-IL-6 antibody, heavy chain T58R, light chain WT (antibody, IgG1, V domains shown, Full IgG1 tested; V domains derived as in m2) VH: EVQLVESGGGLVQPGGSLRLSCAASGFTFSPFAMSWVRQAPGKGLEWVAKISPGGSWRYYSDTVTGRFTFSLDTSKSTAYLQMNSLRAEDTAVYYCARQLWGYYALDIWGQGTLVTVSS VL: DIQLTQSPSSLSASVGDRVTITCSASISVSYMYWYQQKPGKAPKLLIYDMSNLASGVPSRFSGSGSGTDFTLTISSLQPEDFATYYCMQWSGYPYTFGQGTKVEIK ?
-- reply 9.37

The reported measurements were obtained from patent US20240209076A1.
